experiment: Chemical stability of the compound in phosphate buffer at pH 8.0 assessed as half life at 250 umol/mL by HPLC analysis; assay type: physicochemical
MEASURE_NAME: half-life at 250 umol/mL (h)
Write down the numeric answer in h and omit the unit.

Worked examples, 3 compounds total:
In [3]: df
Out[3]:
                            chemical_string              measure_name  uom  readout_value
0  COc1ccc2cc([C@H](C)C(=O)OC[C@H]3O[C@H](O)[C@H](O)[C@@H](O)[C@@H]3O)ccc2c1  half-life at 250 umol/mL    h           23.8
1  COc1ccc2cc([C@H](C)C(=O)OCC/C(SSCc3ccccc3)=C(\C)N(C=O)CC(=O)OC[C@H]3O[C@H](O)[C@H](O)[C@@H](O)[C@@H]3O)ccc2c1  half-life at 250 umol/mL    h           19.5
2  COc1ccc2cc([C@H](C)C(=O)OCC/C(SSC(C)C)=C(\C)N(C=O)CC(=O)OC[C@H]3O[C@H](O)[C@H](O)[C@@H](O)[C@@H]3O)ccc2c1  half-life at 250 umol/mL    h           28.6

Ask: # query: half-life at 250 umol/mL of entry `COc1ccc2cc([C@H](C)C(=O)OCC/C(SSCc3ccccc3)=C(\C)N(C)C=O)ccc2c1`
Reply: 33.8

Ask: Then `CCSS/C(CCOC(=O)[C@@H](C)c1ccc2cc(OC)ccc2c1)=C(/C)N(C=O)CC(=O)OC[C@H]1O[C@H](O)[C@H](O)[C@@H](O)[C@@H]1O` ?
Reply: 25

====

tested on: Plasma; experiment: Metabolic stability in mouse plasma assessed as first order rate constant of compound disappearance at 250 umol/mL by HPLC analysis; assay type: ADME, cell-free
# Activity annotations
I'd appreciate it if you included the unit after the number.

Worked examples, 2 compounds total:
>>> df
                            chemical_string  measure_name     readout_value
0  COc1ccc2cc([C@H](C)C(=O)OCC/C(SSC(C)C)=C(\C)N(C=O)CC(=O)OC[C@H]3O[C@H](O)[C@H](O)[C@@H](O)[C@@H]3O)ccc2c1      Activity   1.46 ×10⁻² /min
1  COc1ccc2cc([C@H](C)C(=O)OC[C@H]3O[C@H](O)[C@H](O)[C@@H](O)[C@@H]3O)ccc2c1      Activity  0.782 ×10⁻² /min

Ask: # query: Activity of entry `COc1ccc2cc([C@H](C)C(=O)OCC/C(SSCc3ccccc3)=C(\C)N(C=O)CC(=O)OC[C@H]3O[C@H](O)[C@H](O)[C@@H](O)[C@@H]3O)ccc2c1`
Reply: 1.53 ×10⁻² /min

Ask: Then `COc1ccc2cc([C@H](C)C(=O)OCC/C(SSCc3ccccc3)=C(\C)N(C)C=O)ccc2c1` ?
Reply: 1.17 ×10⁻² /min

Ask: Then `CCSS/C(CCOC(=O)[C@@H](C)c1ccc2cc(OC)ccc2c1)=C(/C)N(C=O)CC(=O)OC[C@H]1O[C@H](O)[C@H](O)[C@@H](O)[C@@H]1O` ?
Reply: 1.77 ×10⁻² /min

====

assay: Chemical stability of the compound in phosphate buffer at pH 2.5 assessed as first order rate constant of compound disappearance at 250 umol/mL by HPLC analysis; type: physicochemical
# strict inequality: Activity < 3 ×10⁻² /hr yields label 1, everything else yields label 0

Sample answers from the record:
In [3]: df
Out[3]:
                            chemical_string  assigned_label
0  COc1ccc2cc([C@H](C)C(=O)OCC/C(SSCc3ccccc3)=C(\C)N(C=O)CC(=O)OC[C@H]3O[C@H](O)[C@H](O)[C@@H](O)[C@@H]3O)ccc2c1         label 0
1  CCSS/C(CCOC(=O)[C@@H](C)c1ccc2cc(OC)ccc2c1)=C(/C)N(C=O)CC(=O)OC[C@H]1O[C@H](O)[C@H](O)[C@@H](O)[C@@H]1O         label 0
2  COc1ccc2cc([C@H](C)C(=O)OCC/C(SSC(C)C)=C(\C)N(C=O)CC(=O)OC[C@H]3O[C@H](O)[C@H](O)[C@@H](O)[C@@H]3O)ccc2c1         label 0

Ask: Given the entry `COc1ccc2cc([C@H](C)C(=O)OCC/C(SSCc3ccccc3)=C(\C)N(C)C=O)ccc2c1` , would its reported Activity be below 3 ×10⁻² /hr?
Reply: label 0

Ask: Then `COc1ccc2cc([C@H](C)C(=O)OC[C@H]3O[C@H](O)[C@H](O)[C@@H](O)[C@@H]3O)ccc2c1` ?
Reply: label 1
